Target: T1, hVEGF-A (human, UniProt P15692-4 27-191, limits assumed)
T1 construct: also called human VEGF-A; WT
Test: SPR
Below, each entry is listed alongside its reported Kd.
Express it in nM; write the number only.

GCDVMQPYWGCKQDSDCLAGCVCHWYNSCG (designed binder, also called EM63) [VEGF_CKP9.63]
100
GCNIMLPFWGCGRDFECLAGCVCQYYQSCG (designed binder) [VEGF_CKP9.54.90]
0.37

Q: # input binder: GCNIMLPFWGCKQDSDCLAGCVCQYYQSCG (designed binder, also called EM54) [VEGF_CKP9.54] ; wanted: its Kd
Ans: 55

Q: Then this binder: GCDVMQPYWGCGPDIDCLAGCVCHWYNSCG (designed binder, also called L2.9.63.12) [VEGF_CKP9.63.12]
Ans: 1.07
